target: Fibroblast growth factor receptor 2 (Homo sapiens, UniProt P21802); experiment: FGFR2 Enzyme Activity Assay
Sequence (P21802 whole entry): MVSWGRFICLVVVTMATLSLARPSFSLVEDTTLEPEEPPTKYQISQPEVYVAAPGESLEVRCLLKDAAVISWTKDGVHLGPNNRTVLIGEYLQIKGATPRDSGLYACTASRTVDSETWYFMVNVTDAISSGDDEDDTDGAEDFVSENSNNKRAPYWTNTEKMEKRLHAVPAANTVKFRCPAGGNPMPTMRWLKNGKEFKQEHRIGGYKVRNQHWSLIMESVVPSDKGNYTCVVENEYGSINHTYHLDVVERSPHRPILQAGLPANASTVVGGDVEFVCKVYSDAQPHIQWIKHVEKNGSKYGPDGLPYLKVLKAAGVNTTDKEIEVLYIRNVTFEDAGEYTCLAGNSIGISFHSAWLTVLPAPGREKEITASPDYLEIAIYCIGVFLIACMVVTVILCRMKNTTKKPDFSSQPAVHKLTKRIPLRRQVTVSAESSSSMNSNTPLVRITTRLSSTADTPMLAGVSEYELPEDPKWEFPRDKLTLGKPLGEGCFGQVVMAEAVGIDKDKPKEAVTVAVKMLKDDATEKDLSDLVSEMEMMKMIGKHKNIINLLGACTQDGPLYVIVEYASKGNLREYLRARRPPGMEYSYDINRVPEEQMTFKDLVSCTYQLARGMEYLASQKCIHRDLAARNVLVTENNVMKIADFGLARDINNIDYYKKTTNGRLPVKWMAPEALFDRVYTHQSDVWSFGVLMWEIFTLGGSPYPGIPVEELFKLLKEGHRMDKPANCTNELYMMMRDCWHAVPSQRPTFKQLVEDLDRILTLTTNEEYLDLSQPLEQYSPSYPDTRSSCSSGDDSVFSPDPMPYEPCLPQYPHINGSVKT
Below: a set of entries, each annotated with reported pIC50.
Formally, pIC50 is defined as -log10 of the concentration c, with c in mol/L.

Here are 2 compounds together with their reported answers.
INSERT INTO assay_data (line_notation, numeric_result) VALUES
  ('C=CC(=O)N[C@H]1CC[C@H](C(=O)N2CCC(n3cc(-c4cc(OC)c5c(C#N)cnn5c4)cn3)CC2)C1', 8.30),
  ('C=CC(=O)N[C@H]1CCC[C@@H](C(=O)N2CCC(n3cc(-c4cc(OC)c5c(C#N)cnn5c4)cn3)CC2)C1', 8.10);

Shifting focus to the compound that follows.
Tested on Fibroblast growth factor receptor 2 (Homo sapiens, UniProt P21802), the item `C=CC(=O)N[C@H]1CC[C@@H](C(=O)N2CCC(n3cc(-c4cc(OC)c5c(C#N)cnn5c4)cn3)CC2)C1` showed pIC50 equal to 8.40

###

molecular target: UniProt:P11362; test: Enzyme Assay
Sequence (P11362 whole entry): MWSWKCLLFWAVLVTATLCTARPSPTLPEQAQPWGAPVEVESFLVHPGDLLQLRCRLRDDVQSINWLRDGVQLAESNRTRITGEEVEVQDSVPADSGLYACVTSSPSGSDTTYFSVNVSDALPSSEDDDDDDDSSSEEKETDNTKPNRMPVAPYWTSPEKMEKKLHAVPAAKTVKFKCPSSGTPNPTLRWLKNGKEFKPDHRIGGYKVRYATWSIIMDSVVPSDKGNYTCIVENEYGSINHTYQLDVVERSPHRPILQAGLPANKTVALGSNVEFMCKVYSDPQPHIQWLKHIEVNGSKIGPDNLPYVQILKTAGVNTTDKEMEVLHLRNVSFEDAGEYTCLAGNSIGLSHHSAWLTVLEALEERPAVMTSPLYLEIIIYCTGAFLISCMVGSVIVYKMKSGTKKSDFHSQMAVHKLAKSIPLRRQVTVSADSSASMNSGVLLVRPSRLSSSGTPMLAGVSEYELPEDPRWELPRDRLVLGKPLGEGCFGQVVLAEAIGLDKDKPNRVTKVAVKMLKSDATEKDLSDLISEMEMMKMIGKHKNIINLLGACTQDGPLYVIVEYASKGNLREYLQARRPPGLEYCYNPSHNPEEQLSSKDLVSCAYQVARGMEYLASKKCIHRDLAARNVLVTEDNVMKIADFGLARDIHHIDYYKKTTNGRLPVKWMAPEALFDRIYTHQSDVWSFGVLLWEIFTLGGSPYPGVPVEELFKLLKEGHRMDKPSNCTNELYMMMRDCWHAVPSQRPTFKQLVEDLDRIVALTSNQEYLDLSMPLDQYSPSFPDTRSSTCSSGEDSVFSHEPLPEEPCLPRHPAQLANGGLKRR
Lab note: compare IC50 with 100 nM, writing Criterion met if less and Criterion not met if equal or more.

Please review the entries below; each comes with its answer.
INSERT INTO measurements (line_notation, system_under_test, label_class) VALUES
  ('C=CS(=O)(=O)N[C@H]1C[C@H](C(=O)N2CCC(n3cc(-c4cc(OC)c5c(C#N)cnn5c4)cn3)CC2)C1', 'UniProt:P11362', 'Criterion met'),
  ('COc1cc(-c2cnn(C3CCN(C(=O)/C=C/CN(C)C)CC3)c2)cn2ncc(C#N)c12', 'UniProt:P11362', 'Criterion not met'),
  ('C=CS(=O)(=O)N[C@H]1CC[C@H](C(=O)N2CCC(n3cc(-c4cc(OC)c5c(C#N)cnn5c4)cn3)CC2)CC1', 'UniProt:P11362', 'Criterion met'),
  ('C=CC(=O)N[C@H]1CC[C@H](C(=O)N2CCC(n3cc(-c4cc(OC)c5c(C#N)cnn5c4)cn3)CC2)C1', 'UniProt:P11362', 'Criterion not met'),
  ('COc1cc(-c2cnn(C3CN(CC4CN(C(=O)/C=C/CN(C)C)C4)C3)c2)cn2ncc(C#N)c12', 'UniProt:P11362', 'Criterion not met'),
  ('C=CS(=O)(=O)N[C@H]1C[C@@H](C(=O)N2CCC(n3cc(-c4cc(OC)c5c(C#N)cnn5c4)cn3)CC2)C1', 'UniProt:P11362', 'Criterion met'),
  ('C=CC(=O)N[C@H]1CC[C@@H](C(=O)N2CCC(n3cc(-c4cc(OC)c5c(C#N)cnn5c4)cn3)CC2)C1', 'UniProt:P11362', 'Criterion met'),
  ('COc1cc(-c2cnn(C3CCN(C(=O)C4CN(C(=O)/C=C/CF)C4)CC3)c2)cn2ncc(C#N)c12', 'UniProt:P11362', 'Criterion met'),
  ('COc1cc(-c2cnn(C3CN(C(=O)C4CN(C(=O)/C=C/CN(C)C)C4)C3)c2)cn2ncc(C#N)c12', 'UniProt:P11362', 'Criterion not met'),
  ('C=CS(=O)(=O)Nc1ccc(C(=O)N2CCC(n3cc(-c4cc(OC)c5c(C#N)cnn5c4)cn3)CC2)cc1', 'UniProt:P11362', 'Criterion met');

[in] Does `C=CC(=O)N[C@@H]1CC[C@@H](C(=O)N2CCC(n3cc(-c4cc(OC)c5c(C#N)cnn5c4)cn3)CC2)C1` have IC50 strictly under 100 nM?
[out] Criterion not met

[in] Is IC50 strictly under 100 nM for the entry `C=CC(=O)N[C@@H]1CC[C@H](C(=O)N2CCC(n3cc(-c4cc(OC)c5c(C#N)cnn5c4)cn3)CC2)C1` ?
[out] Criterion not met

[in] Say whether its IC50 is strictly beneath 100 nM. Entry: `C=C(F)C(=O)N1CC(C(=O)N2CCC(n3cc(-c4cc(OC)c5c(C#N)cnn5c4)cn3)CC2)C1`
[out] Criterion met
